- Tested on: rat aorta
- Test Summary: Inhibition of calcium-induced contraction of isolated rat aorta strips (reduction of response to added calcium chloride in K+-containing saline)
- Type: cell-based
- Condition: 0.75 h; spirally cut rat aorta strips, 45 millimolar potassium, calcium 2 millimolar, test repeated with compound after 45 minutes; read-out: molar concentration of the compounds required to reduce the response by 50% (IC50)
Where a name gives a salt, the structure may show the parent alone.
Quantity: log10 of IC50 (log10 of the value in nM)
The figures below represent log10 of IC50, where IC50 is stated in nM.

Reference set, count: 3
Look up log10 of IC50 of CCOC(=O)C1=C(COCCN2CCN(C(=N)NC(=O)NC(C)C)CC2)NC(C)=C(C(=O)OC)C1c1ccccc1Cl (centres unmarked) [Example 64] and report it.
1.15

Please look at this molecule and report its log10 of IC50: CCNC(=O)N1CCN(C(C)COCC2=C(C(=O)OCC)C(c3ccccc3Cl)C(C(=O)OC)=C(C)N2)CC1 (centres unmarked) [Example 27]
1.32

Quick one: give measured log10 of IC50 for CCCCNC(=O)N1CCN(CCOCC2=C(C(=O)OCC)C(c3ccccc3Cl)C(C(=O)OC)=C(C)N2)CC1 (centres unmarked) [Example 19]
1.20

Below is a list of molecules. For each, state its recorded log10 of IC50.
1. CCOC(=O)C1=C(COCCN2CCN(CC(=O)OC)CC2)NC(C)=C(C(=O)OC)C1c1ccccc1Cl (centres unmarked) [Example 39]
2. CCOC(=O)C1=C(COCCN2CCN(C(=N)NC(=O)OC)CC2)NC(C)=C(C(=O)OC)C1c1ccccc1Cl (centres unmarked) [Example 65]
3. CCOC(=O)C1=C(COCCN2CCN(C(=NS(=O)(=O)c3ccccc3)NC)CC2)NC(C)=C(C(=O)OC)C1c1ccccc1Cl (centres unmarked) [Example 8]
4. CCOC(=O)C1=C(COCCN2CCN(S(=O)(=O)N(C)C)CC2)NC(C)=C(C(=O)OC)C1c1ccccc1Cl (centres unmarked) [Example 42]
5. CCOC(=O)C1=C(COCCN2CCNCC2)NC(C)=C(C(=O)OC)C1c1ccccc1Cl (centres unmarked) [Example 55]
6. CCOC(=O)C1=C(COCCN2CCN(C(=O)NC)CC2)NC(C)=C(C(=O)OC)C1c1ccccc1F (centres unmarked) [Example 35]
7. CCOC(=O)C1=C(COCCN2CCN(C(=O)NC)CC2)NC(C)=C(C(=O)OC)C1c1cccc(Cl)c1 (centres unmarked) [Example 34]

1: 1.02; 2: 0.91; 3: 1.27; 4: 1.69; 5: 2.19; 6: 1.29; 7: 1.25

Could I get log10 of IC50 for every one of these entries?
1. CCOC(=O)C1=C(COCCN2CCN(C(=O)Nc3cccnc3)CC2)NC(C)=C(C(=O)OC)C1c1ccccc1Cl (centres unmarked) [Example 24]
2. CCOC(=O)C1=C(COCCN2CCN(C(=O)CC(C)=O)CC2)NC(C)=C(C(=O)OC)C1c1ccccc1Cl (centres unmarked) [Example 52, hydrochloride hydrate]
3. CCOC(=O)C1=C(COCCN2CCN(C(=NC(C)=O)NC(C)=O)CC2)NC(C)=C(C(=O)OC)C1c1ccccc1Cl (centres unmarked) [Example 66]
4. CCOC(=O)C1=C(COCCN2CCN(C(=O)OCC)CC2)NC(C)=C(C(=O)OC)C1c1ccccc1Cl (centres unmarked) [Example 49]

1. 1.16
2. 0.99
3. 1.62
4. 1.00

Values were extracted from patent US4539322A.
